Cited source for all entries: PubChem BioAssay (EPA / NIEHS)

- TARGET_UNDER_TEST: Transcription factor E2F1 (Homo sapiens) (UniProt Q01094)
- Sequence (Q01094 whole entry, looked up): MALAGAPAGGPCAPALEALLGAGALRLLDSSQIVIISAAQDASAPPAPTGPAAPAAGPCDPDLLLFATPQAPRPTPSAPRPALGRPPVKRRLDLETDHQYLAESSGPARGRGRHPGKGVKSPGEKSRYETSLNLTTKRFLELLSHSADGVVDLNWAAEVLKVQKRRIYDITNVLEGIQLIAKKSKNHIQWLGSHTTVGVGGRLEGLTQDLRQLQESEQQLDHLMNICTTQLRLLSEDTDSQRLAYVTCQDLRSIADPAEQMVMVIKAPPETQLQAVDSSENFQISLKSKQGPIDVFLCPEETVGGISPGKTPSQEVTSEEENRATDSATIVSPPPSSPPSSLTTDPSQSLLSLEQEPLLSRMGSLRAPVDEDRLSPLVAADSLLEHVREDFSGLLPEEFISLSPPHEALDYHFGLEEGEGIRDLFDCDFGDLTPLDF
- ASSAY_PROCEDURE: ATG_E2F_CIS: Attagene CIS-FACTORIAL HepG2 Assay for human E2F Transcription Factor 1 (AID 2282935)
- PARTICULARS: HepG2 Attagene cis-reporter, E2F reporter RNA transcripts; actives raise or lower the signal
- Method: ATG_CIS is a cell-based, multiplexed-readout assay that uses HepG2, a human liver cell line, with measurements taken at 24 hours after chemical dosing in a 24-well plate.ATG_E2F_CIS is one of 52 assay component(s) measured or calculated from the ATG_CIS assay. […] This assay endpoint, ATG_E2F_CIS, was analyzed with bidirectional fitting relative to DMSO as the negative control and baseline of activity. […]
Calls of active or inactive are those of the source. How the source made its calls: active means hit-call score of the fitted dose curve at least 0.9, where 1 is the maximum; inactive means score below 0.9.
REPORTED_PROPERTY: outcome

ITEM_SMILES: OCC(F)(F)C(F)(F)C(F)(F)C(F)F
TARGET_UNDER_TEST: Transcription factor E2F1 (Homo sapiens) (UniProt Q01094)
REPORTED_PROPERTY: outcome
RESULT: inactive
//
ITEM_SMILES: O[Si](c1ccccc1)(c1ccccc1)c1ccccc1
TARGET_UNDER_TEST: Transcription factor E2F1 (Homo sapiens) (UniProt Q01094)
REPORTED_PROPERTY: outcome
RESULT: inactive
//
ITEM_SMILES: O=C(O)C(F)(F)C(F)(F)C(F)(F)C(F)(F)C(F)(F)C(F)(F)C(F)(F)C(F)(F)Cl
TARGET_UNDER_TEST: Transcription factor E2F1 (Homo sapiens) (UniProt Q01094)
REPORTED_PROPERTY: outcome
RESULT: inactive
//
ITEM_SMILES: OCC(F)(F)C(F)(F)C(F)(F)C(F)(F)C(F)(F)C(F)F
TARGET_UNDER_TEST: Transcription factor E2F1 (Homo sapiens) (UniProt Q01094)
REPORTED_PROPERTY: outcome
RESULT: inactive
//
ITEM_SMILES: FC(F)(F)C(F)(F)C(F)(F)C(F)(F)C(F)(F)CCI
TARGET_UNDER_TEST: Transcription factor E2F1 (Homo sapiens) (UniProt Q01094)
REPORTED_PROPERTY: outcome
RESULT: inactive
//
ITEM_SMILES: CC(C)c1ccccc1N
TARGET_UNDER_TEST: Transcription factor E2F1 (Homo sapiens) (UniProt Q01094)
REPORTED_PROPERTY: outcome
RESULT: inactive
